test system: gastric acid secretion; test: Inhibiting effect of gastric acid secretion, pylorus-ligated rat (Shay); assay type: in vivo; conditions: pylorus ligation, injected into duodenum, 5 hours, acidity (mEq/ml) to 50% of controls, read-out: Inhibiting effect of gastric acid secretion ED50, Acidity
endpointLabel: ED50
Give me the value, and tack the unit on after it.

Here's what some known entries look like.
[[record]]
molecule = "O=C(O)COc1cccc2c1O[C@H]1C[C@@H](O)[C@H](/C=C/[C@@H](O)c3cccc(Cl)c3)[C@@H]21 (relative stereo)"
valueobserved = "1.2 mg/kg"

[[record]]
molecule = "CC(C)[C@H](O)/C=C/[C@@H]1[C@H]2c3cccc(OCC(=O)O)c3O[C@H]2C[C@H]1O (relative stereo)"
valueobserved = "0.89 mg/kg"

[[record]]
molecule = "O=C(O)COc1cccc2c1O[C@H]1C[C@@H](O)[C@H](/C=C/[C@@H](O)c3ccc(Cl)cc3)[C@@H]21 (relative stereo)"
valueobserved = "0.97 mg/kg"

[[record]]
molecule = "O=C(O)COc1cccc2c1O[C@H]1C[C@@H](O)[C@H](/C=C/[C@@H](O)Cc3ccccc3)[C@@H]21 (relative stereo)"
valueobserved = "4.5 mg/kg"

[[record]]
molecule = "O=C(O)COc1cccc2c1O[C@H]1C[C@@H](O)[C@H](/C=C/[C@@H](O)COc3ccccc3)[C@@H]21 (relative stereo)"
valueobserved = "0.31 mg/kg"

[[record]]
molecule = "O=C(O)COc1cccc2c1O[C@H]1C[C@@H](O)[C@H](/C=C/[C@@H](O)C3CCCC3)[C@@H]21 (relative stereo)"
valueobserved = "0.88 mg/kg"

[[record]]
molecule = "CCCCC[C@H](O)/C=C/[C@@H]1[C@H]2c3cccc(OCC(=O)O)c3O[C@H]2C[C@H]1O (relative stereo)"
valueobserved = "2.33 mg/kg"

[[record]]
molecule = "CC(C)(Oc1ccccc1)[C@H](O)/C=C/[C@@H]1[C@H]2c3cccc(C#CC(=O)O)c3O[C@H]2C[C@H]1O (relative stereo)"
valueobserved = "4.6 mg/kg"


State ED50 (gastric acid secretion) of CCC[C@H](C)C[C@H](O)/C=C/[C@@H]1[C@H]2c3cccc(OCC(=O)O)c3O[C@H]2C[C@H]1O .
0.23 mg/kg

Give the observed ED50 of O=C(O)COc1cccc2c1O[C@H]1C[C@@H](O)[C@H](/C=C/[C@@H](O)c3ccccc3Cl)[C@@H]21 (relative stereo) for gastric acid secretion.
0.5 mg/kg
